Ref: ChEMBL document CHEMBL1136904

# measurement_notes: Intrinsic clearance in human liver microsomes in presence of NADPH
# Format: ADME, Microsome
measured_property: microsomal CLint (µL/min/mg)
Give the value in µL/min/mg but do not write µL/min/mg after it.

Briefly, microsomal CLint measured for `COc1ccc2[nH]c(C)c(CC(=O)N[C@@H](CCCCCC(=O)O)c3ncc(-c4ccc5ccccc5c4)[nH]3)c2c1` : 9

----------
# Tested on: HeLa
# measurement_notes: Antiproliferative activity against human HeLa cells after 72 hrs by celltiter-blue cell viability assay
# Type: functional, cell-based
measured_property: IC50 (nM)
Numbers only here, please. The scale is nM.

COc1ccc2[nH]c(C)c(CC(=O)N[C@@H](CCCCCC(N)=O)c3ncc(-c4ccc5ccccc5c4)[nH]3)c2c1 : 440
CN1CCC(C(=O)N[C@@H](CCCCCC(=O)O)c2ncc(-c3ccc4ccccc4c3)[nH]2)CC1 : 35000
CCC(=O)CCCCC[C@@H]1NC(=O)[C@H]2CCCCN2C(=O)[C@H]([C@@H](C)CC)NC(=O)[C@H](Cc2cn(OC)c3ccccc23)NC1=O : 290

Briefly, IC50 measured for `COc1ccc2[nH]c(C)c(CC(=O)N[C@@H](CCCCCC(=O)Nc3ccccc3)c3ncc(-c4ccc5ccccc5c4)[nH]3)c2c1` : 5900

Record summary for `COc1ccc2[nH]c(C)c(CC(=O)N[C@@H](CCCCCC(=O)Nc3ccccc3N)c3ncc(-c4ccc5ccccc5c4)[nH]3)c2c1` : reported IC50 = 1340

For record `COc1ccc2[nH]c(C)c(CC(=O)N[C@@H](CCCCCC(=O)NO)c3ncc(-c4ccc5ccccc5c4)[nH]3)c2c1` the listed IC50 is 180

Record summary for `COc1ccc2[nH]c(C)c(CC(=O)N[C@@H](CCCCCC(=O)NCc3ccccc3)c3ncc(-c4ccc5ccccc5c4)[nH]3)c2c1` : reported IC50 = 6800
